biological target: native mouse MET on living cells (mouse, UniProt P16056 25-1379); assay: cell-based or functional assay
ATTRIBUTE MEASURED: scatter score 0-4, MLP29, 0.012 nM

BINDER	RESULT
71D6 chimeric llama-human IgG1 mAb (antibody, V domains shown, llama VH on human IgG1 CH1-CH2-CH3, llama VL on human lambda CL) VH: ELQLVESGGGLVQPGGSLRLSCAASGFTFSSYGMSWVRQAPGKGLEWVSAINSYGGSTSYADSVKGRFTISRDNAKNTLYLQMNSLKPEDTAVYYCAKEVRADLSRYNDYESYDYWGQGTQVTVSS VL: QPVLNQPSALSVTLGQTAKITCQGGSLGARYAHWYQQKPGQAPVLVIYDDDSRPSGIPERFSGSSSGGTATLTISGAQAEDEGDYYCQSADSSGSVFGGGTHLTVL	2 score
71G12 chimeric llama-human IgG1 mAb (antibody, V domains shown, llama VH on human IgG1 CH1-CH2-CH3, llama VL on human kappa CL) VH: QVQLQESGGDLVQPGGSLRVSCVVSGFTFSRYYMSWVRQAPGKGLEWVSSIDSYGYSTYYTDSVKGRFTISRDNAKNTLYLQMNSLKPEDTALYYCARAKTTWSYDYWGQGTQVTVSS VL: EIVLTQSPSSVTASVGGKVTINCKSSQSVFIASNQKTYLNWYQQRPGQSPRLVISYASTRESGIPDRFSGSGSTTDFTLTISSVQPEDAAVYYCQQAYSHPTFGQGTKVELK	0 score
71G3 chimeric llama-human IgG1 mAb (antibody, V domains shown, llama VH on human IgG1 CH1-CH2-CH3, llama VL on human lambda CL) VH: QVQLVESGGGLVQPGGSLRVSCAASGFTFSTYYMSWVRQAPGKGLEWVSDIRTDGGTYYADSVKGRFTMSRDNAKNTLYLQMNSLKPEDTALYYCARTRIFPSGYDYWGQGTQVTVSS VL: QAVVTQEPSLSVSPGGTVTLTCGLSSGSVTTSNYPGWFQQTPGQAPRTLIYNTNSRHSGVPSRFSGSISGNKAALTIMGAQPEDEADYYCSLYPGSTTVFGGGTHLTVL	0 score
74C8 chimeric llama-human IgG1 mAb (antibody, V domains shown, llama VH on human IgG1 CH1-CH2-CH3, llama VL on human lambda CL) VH: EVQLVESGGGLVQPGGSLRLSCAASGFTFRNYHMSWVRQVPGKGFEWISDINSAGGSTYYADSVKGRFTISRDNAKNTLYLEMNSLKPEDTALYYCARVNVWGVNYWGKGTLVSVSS VL: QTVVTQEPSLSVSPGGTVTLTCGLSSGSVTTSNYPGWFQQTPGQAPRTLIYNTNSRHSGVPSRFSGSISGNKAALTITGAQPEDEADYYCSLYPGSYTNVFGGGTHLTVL	0 score
